assay: in vitro; conditions: WNV CC50
# 1.0 = CC50 below 30 µM (exclusive); 0.0 = CC50 at/above 30 µM

Some solved cases for reference:
# structure-as-smiles, assigned-class
records = [
    ("Cc1cc(Nc2cccc(Cl)c2C)c2cccc(C)c2n1", 0.0),
    ("CCOC(=O)c1cnc2ccc(OCC)cc2c1Nc1ccccc1CC", 0.0),
    ("CCOC(=O)c1cnc2c(OC)cccc2c1NCCCO", 0.0),
    ("CC(=O)c1cccc(Nc2cc(C)nc3c(C)cc(C)cc23)c1", 1.0),
    ("CCOC(=O)c1cnc2ccccc2c1NCc1ccco1", 0.0),
]

Threshold test, CC50 < 30 µM: COC(=O)c1ccc(Nc2c3c(nc4ccccc24)CCC3)cc1 0.0

Threshold test, CC50 < 30 µM: c1cncc(CNc2c3ccccc3nc3ccccc23)c1 1.0

Threshold test, CC50 < 30 µM: Cc1ccc(Nc2cc(C)nc3ccc(C)cc23)cc1 0.0

Threshold test, CC50 < 30 µM: CCOC(=O)c1cnc2ccc(OC)cc2c1NCc1ccco1 1.0

Threshold test, CC50 < 30 µM: COC(=O)c1ccc(Nc2cc(C)nc3cc(Cl)ccc23)cc1 0.0

Threshold test, CC50 < 30 µM: CCOC(=O)c1cnc2c(C(F)(F)F)cccc2c1Nc1ccc(S(=O)(=O)Nc2nc(C)cc(C)n2)cc1 0.0

Threshold test, CC50 < 30 µM: c1coc(CNc2c3c(nc4ccccc24)CCC3)c1 0.0

Threshold test, CC50 < 30 µM: Cc1ccc(Nc2c3c(nc4ccc(C)cc24)CCC3)cc1 0.0

Threshold test, CC50 < 30 µM: CCOc1ccc2nc(C)cc(Nc3ccc(Br)cc3)c2c1 1.0

Threshold test, CC50 < 30 µM: COc1ccccc1Nc1cc(C)nc2c(C)c(C)cc(N)c12 0.0

Threshold test, CC50 < 30 µM: Cc1cc(C)c2nc(C)cc(NCc3ccco3)c2c1 0.0

Threshold test, CC50 < 30 µM: Cc1ccc2nc3c(c(Nc4ccc(O)cc4)c2c1)CCC3 0.0

Threshold test, CC50 < 30 µM: CCOc1ccc2nc(C)cc(Nc3ccc(OCc4ccccc4Cl)cc3)c2c1 1.0

Threshold test, CC50 < 30 µM: Cc1cc(NNC(=O)OCc2ccccc2)c2ccccc2n1 0.0

Threshold test, CC50 < 30 µM: Cc1ccc2nc3c(c(Nc4ccc(N5CCOCC5)cc4)c2c1)CCC3 0.0

----------
tested on: EBOV minigenome; experiment: microbe, parasite or virus in culture; type: cell-based, Ebola virus; conditions: Zaire ebolavirus, 24 h, read-out: EBOV Inh
Decision: inhibition at 25 µM >= 60% yields Yes, all other cases yield No.

Some solved cases for reference:
# structure-as-smiles, assigned-class
data = [
    ("CCOC(=O)c1cnc2ccc(OCC)cc2c1Nc1ccccc1CC", "No"),
    ("Cc1cc(C)c2nc(C)cc(Nc3ccc(O)cc3)c2c1", "Yes"),
]

Given COC(=O)c1ccc2nc(C)cc(Nc3cccc(O)c3)c2c1 , state whether its inhibition at 25 µM is at least 60%. Yes

Given COc1cccc2c(Nc3cccc([N+](=O)[O-])c3)cc(C)nc12 , state whether its inhibition at 25 µM is at least 60%. Yes

Given CCOC(=O)c1cnc2c(C)cc(C)cc2c1NCCCN(C)C , state whether its inhibition at 25 µM is at least 60%. Yes

Given CCOC(=O)c1ccc2nc(C)cc(Nc3ccc(C)cc3C)c2c1 , state whether its inhibition at 25 µM is at least 60%. No

----------
Overview of reported pEC50 across a group of molecules:
system: DNG (D2-hRuPac cells); assay: DNG antiviral activity, D2-hRuPac cells, Renilla luciferase; type: cell-based, Dengue fever virus; details: Dengue virus, secondary screening
Answer as the number alone; pEC50 is minus log10 of concentration in mol/L.

# molecule, numeric-readout
measured = [
    ("COc1cccc2c(Nc3cccc([N+](=O)[O-])c3)cc(C)nc12", 5.41),
]

Record summary for CCOC(=O)c1cnc2ccc(OCC)cc2c1NCc1ccco1 : reported pEC50 = 4.78

Record summary for CCc1ccccc1Nc1c2ccccc2nc2ccccc12 : reported pEC50 = 4.67

Record summary for Cc1cc(Nc2ccc(C)c(C)c2)c2cc(Cl)ccc2n1 : reported pEC50 = 4.40

Record summary for CCOc1ccc2nc(C)cc(Nc3ccc(Br)cc3)c2c1 : reported pEC50 = 5.10

Record summary for COc1ccc2nc(C)cc(Nc3ccc(I)cc3)c2c1 : reported pEC50 = 4.87

Record summary for CCOC(=O)c1cnc2c(OC)cccc2c1NCC(C)O (stereo not shown) : reported pEC50 = 4.36

Record summary for COC(=O)c1ccc(Nc2cc(C)nc3c(C)cccc23)cc1 : reported pEC50 = 4.85

Record summary for CCOC(=O)c1ccc2ncc(C(=O)OCC)c(NCc3ccco3)c2c1 : reported pEC50 = 4.98

----------
assay: in vitro; conditions: RSV CC50
assay-readout: CC50 (µM)
# value in µM; strip the unit string

Worked examples follow.
# structure-as-smiles, assay-readout, readout-unit, numeric-readout
rows = [
    ("Cc1ccc2nc3c(c(Nc4ccc(N5CCOCC5)cc4)c2c1)CCC3", "CC50", "µM", 44.8),
    ("CCOC(=O)c1cnc2ccc(F)cc2c1NCCCN(C)C", "CC50", "µM", 64.6),
    ("COc1cccc2c(Nc3cccc([N+](=O)[O-])c3)cc(C)nc12", "CC50", "µM", 22.9),
    ("CCOC(=O)c1cnc2c(C)cccc2c1NCc1ccco1", "CC50", "µM", 49.1),
    ("CCOC(=O)c1cnc2c(OC)cccc2c1NCc1ccco1", "CC50", "µM", 29.9),
    ("COc1ccccc1Nc1cc(C)nc2c(C)c(C)cc(N)c12", "CC50", "µM", 52.6),
]

Record summary for Cc1cc(C)c2nc(C)cc(Nc3ccc(Cl)c(Cl)c3)c2c1 : reported CC50 = 49.1

Record summary for Cc1ccc2nc(C)cc(NCc3ccco3)c2c1 : reported CC50 = 57.9

----------
assay: in vitro; conditions: YFV CC50
# t = CC50 below 30 µM (exclusive); f = CC50 at/above 30 µM

# structure-as-smiles, assigned-class
data = [
    ("Cc1cc(Nc2ccc(C)c(C)c2)c2cc(Cl)ccc2n1", "f"),
    ("CCOC(=O)c1ccc(Nc2cc(C)nc3c2ccc2ccccc23)cc1", "f"),
    ("CCOC(=O)c1cnc2ccc(C)cc2c1NCc1ccco1", "t"),
]

Threshold test, CC50 < 30 µM: CCOC(=O)c1cnc2c(OC)cccc2c1NCCCO f

Threshold test, CC50 < 30 µM: Cc1ccc2nc(C)cc(N3CCC(C)CC3)c2c1 f

Threshold test, CC50 < 30 µM: CCOc1ccc2nc(C)cc(Nc3ccc(OCc4ccccc4Cl)cc3)c2c1 t

Threshold test, CC50 < 30 µM: CCOC(=O)c1cnc2c(Cl)cc(Cl)cc2c1NCc1ccco1 f

Threshold test, CC50 < 30 µM: CC(=O)c1cccc(Nc2cc(C)nc3c(C)cc(C)cc23)c1 t

Threshold test, CC50 < 30 µM: CCOC(=O)c1cnc2c(C)cccc2c1NCc1ccco1 f

Threshold test, CC50 < 30 µM: COc1ccc(Nc2cc(C)nc3ccccc23)cc1 f

Threshold test, CC50 < 30 µM: Cc1ccc2nc(C)cc(NCc3ccco3)c2c1 f

Threshold test, CC50 < 30 µM: CCOc1ccc2nc(C)cc(Nc3ccc(Br)cc3)c2c1 t

Threshold test, CC50 < 30 µM: Cc1cc(Nc2cccc(C(F)(F)F)c2)c2cc(Cl)ccc2n1 f

Threshold test, CC50 < 30 µM: COC(=O)c1ccc(Nc2cc(C)nc3c(C)cccc23)cc1 f

Threshold test, CC50 < 30 µM: CCOC(=O)c1cnc2ccccc2c1NCc1ccco1 f

Threshold test, CC50 < 30 µM: CCOc1ccc2nc(C)cc(Nc3ccc(Cl)cc3)c2c1 t

Threshold test, CC50 < 30 µM: Cc1cc(C)c2nc(C)cc(Nc3ccc(OCc4ccccc4)cc3)c2c1 t

Threshold test, CC50 < 30 µM: CCOC(=O)c1cnc2c(ccc3ccccc32)c1NCc1ccco1 f

Threshold test, CC50 < 30 µM: Cc1ccc2nc3c(c(Nc4ccc(O)cc4)c2c1)CCC3 f

----------
assay: in vitro; details: YFV CC50
Overview of reported CC50 across a group of compounds:
# value in µM; strip the unit string

Record summary for c1ccc2cc(Nc3c4ccccc4nc4ccccc34)ccc2c1 : reported CC50 = 47.6

Record summary for CCOC(=O)c1cnc2ccc(OCC)cc2c1Nc1ccccc1CC : reported CC50 = 61.9

Record summary for Cc1cc(C)c2nc(C)cc(NCc3ccco3)c2c1 : reported CC50 = 50.2

Record summary for Cc1cc(C)c2nc(C)cc(Nc3ccc(Cl)c(Cl)c3)c2c1 : reported CC50 = 49.1

Record summary for c1coc(CNc2c3c(nc4ccccc24)CCC3)c1 : reported CC50 = 58.5

Record summary for Cc1ccc(Nc2cc(C)nc3c2ccc2ccccc23)cc1 : reported CC50 = 73

Record summary for COc1ccc2nc(C)cc(Nc3ccc(OCc4ccccc4Cl)cc3)c2c1 : reported CC50 = 26.1

Record summary for Cc1ccc2nc3c(c(Nc4cccc(C(F)(F)F)c4)c2c1)CCC3 : reported CC50 = 53.1
